# MEASUREMENT_NOTES: Toxicokinetic evaluation in pregnant rats (Example 3)
# Assay type: in vivo, rat
# CONDITION_CONTEXT: female, Sprague-Dawley, rat, plasma, po, 150 mg/kg/day, GD 17, belumosudil 150 mg base/kg oral; read-out: Mean AUC0-24 in plasma of pregnant rats
ENDPOINT_NAME: AUC(0-t) (ng·h/mL)
Numbers only, in ng·h/mL.

*Q* # input compound: CC(C)NC(=O)COc1cccc(-c2nc(Nc3ccc4[nH]ncc4c3)c3ccccc3n2)c1 ; wanted: its AUC(0-t)
*A* 88300

---

# MEASUREMENT_NOTES: Toxicokinetic evaluation in pregnant rats (Example 3)
# Assay type: in vivo, rat
# CONDITION_CONTEXT: female, Sprague-Dawley, rat, plasma, po, 150 mg/kg/day, GD 6, belumosudil 150 mg base/kg oral
ENDPOINT_NAME: Cmax (ng/mL)
Answers are plain numbers, in ng/mL.

*Q* # input compound: CC(C)NC(=O)COc1cccc(-c2nc(Nc3ccc4[nH]ncc4c3)c3ccccc3n2)c1 [belumosudil] ; wanted: its Cmax
*A* 5150
